biological target: human SGLT2 (Homo sapiens, UniProt P31639); construct: expressed in transfected cells; host or cells: CHOK1 (Chinese hamster ovary) cells, kept under Geneticin selection; test: Assay for SGLT2 inhibition (14C-AMG uptake in CHOK1 cells expressing human SGLT2); type: cell-based; conditions: CHOK1 cells expressing human SGLT2; 14C-AMG uptake, 0.5 mM, 2 hours at 37° C.; read-out: IC50
Sequence (P31639 whole entry): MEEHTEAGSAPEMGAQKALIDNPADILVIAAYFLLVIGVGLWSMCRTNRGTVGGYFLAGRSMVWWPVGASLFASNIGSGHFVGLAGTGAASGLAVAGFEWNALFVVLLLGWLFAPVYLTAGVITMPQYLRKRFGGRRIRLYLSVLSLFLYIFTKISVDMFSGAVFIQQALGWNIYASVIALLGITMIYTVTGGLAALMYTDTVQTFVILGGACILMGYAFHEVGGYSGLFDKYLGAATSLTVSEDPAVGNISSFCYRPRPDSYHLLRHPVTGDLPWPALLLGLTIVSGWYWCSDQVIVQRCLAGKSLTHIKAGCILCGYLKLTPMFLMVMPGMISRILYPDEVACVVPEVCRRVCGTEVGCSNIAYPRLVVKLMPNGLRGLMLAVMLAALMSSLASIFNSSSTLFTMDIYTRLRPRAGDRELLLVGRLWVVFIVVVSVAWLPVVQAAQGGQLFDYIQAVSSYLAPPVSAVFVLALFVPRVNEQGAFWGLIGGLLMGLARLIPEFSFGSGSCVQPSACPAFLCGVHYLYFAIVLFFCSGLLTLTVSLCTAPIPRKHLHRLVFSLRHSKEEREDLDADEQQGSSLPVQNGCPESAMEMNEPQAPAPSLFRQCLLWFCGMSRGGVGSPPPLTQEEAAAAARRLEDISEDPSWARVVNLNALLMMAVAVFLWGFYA
Checkbox rule: IC50 lower than 3 nM = Fulfilled; IC50 not lower than 3 nM = Not fulfilled.

Would you please look over these solved cases?
INSERT INTO assay_data (smilesentry, assignedclass) VALUES
  ('CSc1ccc(Cc2cn([C@@H]3O[C@H](CO)[C@@H](O)[C@H](O)[C@H]3O)c3cccc(Cl)c23)cc1', 'Fulfilled'),
  ('OC[C@H]1O[C@@H](n2cc(Cc3ccc4occc4c3)c3c(Cl)cccc32)[C@H](O)[C@@H](O)[C@@H]1O', 'Not fulfilled'),
  ('OC[C@H]1O[C@@H](n2cc(Cc3ccc(OCCF)cc3)c3c(Cl)cccc32)[C@H](O)[C@@H](O)[C@@H]1O', 'Fulfilled'),
  ('OC[C@H]1O[C@@H](n2cc(Cc3ccc(OCCF)cc3)c3c(F)cccc32)[C@H](O)[C@@H](O)[C@@H]1O', 'Not fulfilled'),
  ('OC[C@H]1O[C@@H](n2cc(Cc3ccc4occc4c3)c3c(F)cccc32)[C@H](O)[C@@H](O)[C@@H]1O', 'Not fulfilled');

Could you please tell me whether IC50 recorded for `Cc1cccc2c1c(Cc1ccc(-c3ccc(F)cc3)s1)cn2[C@@H]1O[C@H](CO)[C@@H](O)[C@H](O)[C@H]1O` is less than 3 nM?
Not fulfilled

Could you please tell me whether IC50 recorded for `OC[C@H]1O[C@@H](n2cc(Cc3ccc(I)cc3)c3c(Cl)cccc32)[C@H](O)[C@@H](O)[C@@H]1O` is less than 3 nM?
Not fulfilled

The measurements presented in this section are drawn from patent US7935674B2.
